# TARGET SYSTEM: human CYP11B1 (Homo sapiens)
# Sequence (P15538 25-503): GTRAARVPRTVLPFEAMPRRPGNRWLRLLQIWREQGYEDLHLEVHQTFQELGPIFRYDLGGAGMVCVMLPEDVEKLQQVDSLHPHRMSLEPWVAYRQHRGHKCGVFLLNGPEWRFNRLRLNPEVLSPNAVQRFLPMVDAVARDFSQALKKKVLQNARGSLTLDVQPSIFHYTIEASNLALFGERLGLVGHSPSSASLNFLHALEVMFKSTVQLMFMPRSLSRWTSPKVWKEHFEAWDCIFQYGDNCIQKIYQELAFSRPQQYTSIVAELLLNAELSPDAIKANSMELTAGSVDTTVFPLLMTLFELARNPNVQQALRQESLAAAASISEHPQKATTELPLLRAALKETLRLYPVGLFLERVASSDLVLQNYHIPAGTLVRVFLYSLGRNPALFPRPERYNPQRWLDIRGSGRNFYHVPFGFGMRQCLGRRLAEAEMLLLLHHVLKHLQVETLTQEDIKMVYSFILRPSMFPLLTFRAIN
# MEASUREMENT DESCRIPTION: IC50 vs CYP11B1 by measurement of cortisol synthesis in V79 cells
# CONDITION LABEL: V79 cells expressing human CYP11B1, 1500 nM RSS, cortisol HTRF
pIC50: recorded values
The value called pIC50 is obtained by taking minus log10 of the concentration in mol/L.

Here's what some known entries look like.
C[C@@H](c1ccccc1-c1ccc(F)cc1)n1cncc1C(=O)N1CCC2NC(=O)COC2(C)C1 (stereo partly shown) :: 4.68
C[C@@H](c1ccccc1-c1ccc(F)cc1)n1cncc1C(=O)N1CCC(N2CCc3nccnc3C2)CC1 :: 4.83
C[C@@H](c1ccccc1-c1cccc(F)c1)n1cncc1C(=O)N1CCC2NCCO[C@@H]2C1 (stereo partly shown) :: 4.49
C[C@@H](c1ccccc1-c1ccc(F)cc1F)n1cncc1C(=O)N1CCC2NCCO[C@@H]2C1 (stereo partly shown) :: 4.60

Query (molecule): C[C@@H](c1ccccc1-c1ccc(F)cc1)n1cncc1C(=O)N1CCN2C[C@H](O)C[C@H]2C1 ; field requested: pIC50
4.53

Query (molecule): C[C@@H](c1ccccc1-c1ccc(F)cc1)n1cncc1C(=O)N1CC[C@H]2NCCO[C@@H]2C1 ; field requested: pIC50
4.86

Query (molecule): C[C@@H](c1ccccc1-c1ccc(F)c(F)c1F)n1cncc1C(=O)N1CCC2NCCO[C@@H]2C1 (stereo partly shown) ; field requested: pIC50
4.84

====

pIC50: recorded values
# TARGET SYSTEM: UniProt:P05177
# Sequence (P05177 1-516): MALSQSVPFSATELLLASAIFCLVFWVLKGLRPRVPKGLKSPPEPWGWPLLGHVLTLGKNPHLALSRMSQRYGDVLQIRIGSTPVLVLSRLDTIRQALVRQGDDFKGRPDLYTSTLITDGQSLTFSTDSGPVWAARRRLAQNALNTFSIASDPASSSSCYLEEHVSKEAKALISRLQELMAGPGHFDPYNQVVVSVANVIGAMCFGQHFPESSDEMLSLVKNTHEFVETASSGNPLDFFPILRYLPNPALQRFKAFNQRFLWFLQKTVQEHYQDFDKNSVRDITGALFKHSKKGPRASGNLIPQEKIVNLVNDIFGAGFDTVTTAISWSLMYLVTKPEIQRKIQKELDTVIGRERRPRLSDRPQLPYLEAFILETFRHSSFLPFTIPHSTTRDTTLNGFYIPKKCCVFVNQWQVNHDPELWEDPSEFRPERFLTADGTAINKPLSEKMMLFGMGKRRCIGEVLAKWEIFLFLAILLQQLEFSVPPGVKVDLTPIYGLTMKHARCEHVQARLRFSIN
pIC50: −log10 of the molar value.

Here's what some known entries look like.
C[C@@H](c1ccccc1-c1ccc(F)cc1)n1cncc1C(=O)N1CCC(N2CC[C@H](O)[C@@H](F)C2)CC1 :: < 5.00
C[C@@H](c1ccccc1-c1ccc(F)cc1)n1cncc1C(=O)N1CCN2C[C@H](O)C[C@H]2C1 :: < 5.00
CO[C@@H]1CN(C2CCN(C(=O)c3cncn3[C@@H](C)c3ccccc3-c3ccc(F)cc3)CC2)CC[C@@H]1O :: < 5.00
C[C@@H](c1ccccc1-c1ccc(F)cc1)n1cncc1C(=O)N1CCC(N2C[C@H](O)[C@@H](F)C2)CC1 :: < 5.00

// next entry
Query (compound): COCc1ccccc1-c1ccccc1[C@H](C)n1cncc1C(=O)N1CCC2NCCO[C@@H]2C1 (some centres unmarked) ; field requested: pIC50
< 5.00
